- Tgt: DCAF15 (DDA1-DDB1ΔB-DCAF15Δpro) (Homo sapiens, UniProt Q66K64, DEL276-383)
- Construct: made in house; host or cells: Sf9 (Bac-to-Bac baculovirus)
- Test method notes: DCAF15 displacement assay (displacement FRET, probe PT7795)
- Type: binding
- Measurement conditions: displacement of PT7795 (300 nM), compound 0.01 to 100 μM, 18 hours incubation; read-out: DCAF15 displacement IC50
- Description: Proteins used for the assays were as follows: Human DDA1 (UniProt:Q9BW61), DDB1 (UniPro: Q16531), and DCAF15 (UniProt: Q66K64) coding sequences were cloned into pFastBac1 vectors and were co-expressed in Sf9 cells using Bac-to-Bac baculovirus expression system (Thermo Fisher Scientific). […] Binding of PT7795 to DDA1-DDB1AB-DCAF15Δpro was measured by the FRET signal between europium-labeled anti-His antibody (AD0205, Perkin Elmer) that is associated with His-tagged DCAF15 and ALX647 moiety in PT7795. […]
This section presents compounds with their documented pIC50 values.
# log scale: pIC50 equals minus log10 of the concentration in mol/L

These recorded examples may help you get a feel for the data.
[ask] Look at this compound and give its reported pIC50. O=c1cccc(CN2Cc3cc(Cl)c4c(Cl)c[nH]c4c3NS2(=O)=O)[nH]1
[reply] 6.00

[ask] // repeat for O=S1(=O)Nc2c(cc(Cl)c3c(Cl)c[nH]c23)CN1Cc1ccc(Cl)cc1 and report
[reply] 4.44

[ask] // repeat for N#Cc1ccc(CN2Cc3cc(Cl)c4c(Cl)c[nH]c4c3NS2(=O)=O)cc1 and report
[reply] 5.24

***
[ask] Look at this compound and give its reported pIC50. O=S1(=O)Nc2c(cc(Cl)c3c(Cl)c[nH]c23)CN1Cc1cncnc1
[reply] 6.28

[ask] // repeat for O=S1(=O)CCc2cc(Cl)c3c(Cl)c[nH]c3c2N1 and report
[reply] 4.70

[ask] // repeat for COCCN1Cc2ccc3c(Cl)c[nH]c3c2NS1(=O)=O and report
[reply] 4.49

[ask] // repeat for COCCN1Cc2cc(C)c3c(Cl)c[nH]c3c2NS1(=O)=O and report
[reply] 5.21

[ask] // repeat for N#Cc1cccc(CN2Cc3cc(Cl)c4c(Cl)c[nH]c4c3NS2(=O)=O)c1 and report
[reply] 5.36

[ask] // repeat for O=S1(=O)Nc2c(cc(Cl)c3c(Cl)c[nH]c23)CN1Cc1ccc(C(F)(F)F)nc1 and report
[reply] 5.08

###

- Tgt: DCAF15 (DDA1-DDB1ΔB-DCAF15Δpro) (Homo sapiens, UniProt Q66K64, DEL276-383)
- Construct: made in house; host or cells: Sf9 (Bac-to-Bac baculovirus)
- Test method notes: DCAF15 displacement assay (displacement FRET, probe PT7795)
- Type: binding
- Measurement conditions: displacement of PT7795 (300 nM), compound 0.01 to 100 μM, 18 hours incubation; read-out: DCAF15 displacement IC50
Readout type: pIC50
# log scale: pIC50 equals minus log10 of the concentration in mol/L

These recorded examples may help you get a feel for the data.
[ask] Give DCAF15 (DDA1-DDB1ΔB-DCAF15Δpro) (Homo sapiens, UniProt Q66K64, DEL276-383) pIC50 for COCCN1Cc2cc(Cl)c3c(Cl)c[nH]c3c2NS1(=O)=O
[reply] 5.50

[ask] // repeat for Cc1ccc(CN2Cc3cc(Cl)c4c(Cl)c[nH]c4c3NS2(=O)=O)cn1 and report
[reply] 6.21

[ask] // repeat for COCCC1Cc2cc(Cl)c3c(Cl)c[nH]c3c2NS1(=O)=O (racemic) and report
[reply] 4.91

***
[ask] Give DCAF15 (DDA1-DDB1ΔB-DCAF15Δpro) (Homo sapiens, UniProt Q66K64, DEL276-383) pIC50 for COCCCN1Cc2cc(Cl)c3c(Cl)c[nH]c3c2NS1(=O)=O
[reply] 6.20

[ask] // repeat for CN1CCC(CN2Cc3cc(Cl)c4c(Cl)c[nH]c4c3NS2(=O)=O)CC1 and report
[reply] 6.11

[ask] // repeat for O=S1(=O)Nc2c(ccc3c(Cl)c[nH]c23)CN1c1cccnc1 and report
[reply] 5.48

[ask] // repeat for O=c1cc(CN2Cc3cc(Cl)c4c(Cl)c[nH]c4c3NS2(=O)=O)cc[nH]1 and report
[reply] 6.79

[ask] // repeat for Nc1ccccc1CN1Cc2cc(Cl)c3c(Cl)c[nH]c3c2NS1(=O)=O and report
[reply] 6.52

###

- Tgt: DCAF15 RBM39 ternary complex (Homo sapiens, UniProt Q14498+Q66K64, DEL276-383)
- Construct: Amino acids 150 to 331 of RBM39 were cloned into pGEX4T3; GST (from the pGEX4T3 vector, own knowledge) followed by a TEV cleavage site (N); made in house; host or cells: Sf9 baculovirus (DDB1ΔB/DCAF15); E. coli (RBM39 R1R2)
- Sequence (Q66K64 with tags, fused parts or gaps DEL276-383): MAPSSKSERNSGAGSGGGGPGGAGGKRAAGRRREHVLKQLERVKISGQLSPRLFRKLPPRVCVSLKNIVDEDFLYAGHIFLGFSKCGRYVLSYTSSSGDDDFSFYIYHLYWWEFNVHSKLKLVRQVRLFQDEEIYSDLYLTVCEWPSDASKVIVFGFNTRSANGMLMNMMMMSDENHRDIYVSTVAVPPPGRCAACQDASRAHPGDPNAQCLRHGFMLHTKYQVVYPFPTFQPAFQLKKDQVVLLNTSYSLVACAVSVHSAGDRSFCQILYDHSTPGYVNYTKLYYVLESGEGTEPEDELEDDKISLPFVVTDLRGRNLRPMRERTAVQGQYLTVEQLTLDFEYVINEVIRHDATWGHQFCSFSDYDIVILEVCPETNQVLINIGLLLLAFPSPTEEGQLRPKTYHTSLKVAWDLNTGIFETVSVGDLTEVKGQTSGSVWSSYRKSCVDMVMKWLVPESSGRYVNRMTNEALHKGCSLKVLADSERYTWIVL
- Sequence (Q14498 150-331, stated change not applied): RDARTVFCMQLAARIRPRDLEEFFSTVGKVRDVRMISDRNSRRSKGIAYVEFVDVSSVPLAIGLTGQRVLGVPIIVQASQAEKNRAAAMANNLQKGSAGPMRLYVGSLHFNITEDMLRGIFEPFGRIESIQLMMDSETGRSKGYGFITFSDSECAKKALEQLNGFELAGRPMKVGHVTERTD
- Test method notes: DCAF15 RBM39 complex formation assay (FRET)
- Assay type: biochemical
- Measurement conditions: FRET ratio, 20 nM DDB1DB/DCAF15, 50 nM RBM39 R1R2, overnight at 4° C.; read-out: DCAF15 RBM39 ternary complex EC50
Readout type: pEC50
# log scale: pEC50 equals minus log10 of the concentration in mol/L

[ask] Look at this compound and give its reported pEC50. O=S1(=O)Nc2c(cc(Cl)c3c(Cl)c[nH]c23)CN1CC1CCCCO1 (centres unmarked)
[reply] 8.92

[ask] // repeat for O=S1(=O)Nc2c(cc(Cl)c3c(Cl)c[nH]c23)CN1Cc1cccnc1Cl and report
[reply] 9.10

[ask] // repeat for CC(=O)N1CC(CN2Cc3cc(Cl)c4c(Cl)c[nH]c4c3NS2(=O)=O)C1 and report
[reply] 9.40

[ask] // repeat for O=S1(=O)NCc2cc(Cl)c3c(Cl)c[nH]c3c2N1 and report
[reply] 8.09

[ask] // repeat for COCC[C@H]1Cc2cc(Cl)c3c(Cl)c[nH]c3c2NS1(=O)=O (single isomer, unassigned) and report
[reply] 8.72

[ask] // repeat for O=c1cc(CN2Cc3cc(Cl)c4c(Cl)c[nH]c4c3NS2(=O)=O)c(Cl)c[nH]1 and report
[reply] 8.64

[ask] // repeat for O=S1(=O)Nc2c(cc(Cl)c3c(Cl)c[nH]c23)CN1Cc1ccccn1 and report
[reply] 8.80

***
[ask] Look at this compound and give its reported pEC50. O=S1(=O)Nc2c(cc(Cl)c3c(Cl)c[nH]c23)CN1Cc1ccc(F)cc1
[reply] 8.41

###

This section presents compounds with their documented IC50 values.
- Tgt: DCAF15 (DDA1-DDB1ΔB-DCAF15Δpro) (Homo sapiens, UniProt Q66K64, DEL276-383)
- Construct: made in house; host or cells: Sf9 (Bac-to-Bac baculovirus)
- Test method notes: DCAF15 displacement assay (displacement FRET, probe PT7795)
- Type: binding
- Measurement conditions: displacement of PT7795 (300 nM), compound 0.01 to 100 μM, 18 hours incubation; read-out: DCAF15 displacement IC50
# value in nM; strip the unit string

These recorded examples may help you get a feel for the data.
[ask] Look at this compound and give its reported IC50. CC(=O)N1CCC(CN2Cc3cc(Cl)c4c(Cl)c[nH]c4c3NS2(=O)=O)CC1
[reply] 127

[ask] // repeat for Cn1ncnc1CN1Cc2cc(Cl)c3c(Cl)c[nH]c3c2NS1(=O)=O and report
[reply] 458

[ask] // repeat for O=S1(=O)Nc2c(cc(Cl)c3c(Cl)c[nH]c23)CN1CC1CCCOC1 (stereo not drawn) and report
[reply] 94.9

[ask] // repeat for COCCN1Cc2cc(Cl)c3c(Cl)n[nH]c3c2NS1(=O)=O and report
[reply] 4560

[ask] // repeat for CS(=O)(=O)N1CCC(CN2Cc3cc(Cl)c4c(Cl)c[nH]c4c3NS2(=O)=O)CC1 and report
[reply] 223

[ask] // repeat for O=S1(=O)Nc2c(cc(Cl)c3c(Cl)c[nH]c23)CN1CC1COC1 and report
[reply] 689

[ask] // repeat for O=S1(=O)Nc2c(cc(Cl)c3c(Cl)c[nH]c23)CN1CC1CCOCC1 and report
[reply] 276

[ask] // repeat for CN(C)CCN1Cc2cc(Cl)c3c(Cl)c[nH]c3c2NS1(=O)=O and report
[reply] 17500

[ask] // repeat for O=S1(=O)Nc2c(cc(Cl)c3c(Cl)c[nH]c23)CN1Cc1cnccc1Cl and report
[reply] 371

[ask] // repeat for O=S1(=O)Nc2c(cc(Cl)c3c(Cl)c[nH]c23)CN1CC1CCNCC1 and report
[reply] 285

***
[ask] Look at this compound and give its reported IC50. Cn1cc(CN2Cc3cc(Cl)c4c(Cl)c[nH]c4c3NS2(=O)=O)ccc1=O
[reply] 934

[ask] // repeat for O=S1(=O)Nc2c(cc(Cl)c3c(Cl)c[nH]c23)CN1Cc1cccc(O)c1 and report
[reply] 1650

[ask] // repeat for Cn1cnc(CN2Cc3cc(Cl)c4c(Cl)c[nH]c4c3NS2(=O)=O)n1 and report
[reply] 2000

[ask] // repeat for O=S1(=O)Nc2c(cc(Cl)c3c(Cl)c[nH]c23)CN1CCCC(F)(F)C(F)(F)F and report
[reply] 52200
